# protocol description: NCI Yeast Anticancer Drug Screen. Data for the rad50 strain (AID 155);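 note: 0% = growth of vehicle-only cultures of the same strain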
# particulars: S. cerevisiae rad50 strain growth inhibition; at 50.0 µM
About 79,000 compounds went through this panel and 15% of them were active in at least one assay; those are over-represented in the sample as a whole. Activity calls are given as the source filed them. Cut-off read from the data, not from the text of the source: active = growth inhibition above about 70%; inactive = the rest.
Answer with one of the outcomes class 1 = active, class 0 = inactive

Input line: Recorded call for CC[N+](C)(CC)CCC[n+]1c(-c2ccccc2)c2cc(N)ccc2c2ccc(N)cc21 ?
Output line: class 1

Input line: Recorded call for CC(C)N1C(=O)c2ccccc2S1(Cl)c1ccccc1 (centres undefined) ?
Output line: class 1

Input line: Recorded call for Cc1cc(Cc2ccc(Cl)cc2)ccc1O ?
Output line: class 0

Input line: Recorded call for c1ccc(B2OC(c3ccccc3)C(c3ccccc3)O2)cc1 (centres undefined) ?
Output line: class 0

Input line: Recorded call for O=C1CN(c2cccc(Cl)c2)C(=O)CN1/N=C/c1ccc[nH]1 ?
Output line: class 1

Input line: Recorded call for CCCCN(CCCC)CCC(=O)c1ccc2c(ccc3ccccc32)c1 ?
Output line: class 1

Input line: Recorded call for CN(C)CCCNCC(=O)Nc1ccc(S(=O)(=O)c2ccc(NC(=O)CNCCCN(C)C)cc2)cc1 ?
Output line: class 1

Input line: Recorded call for O=C(NCCCCC(NC(=O)OCc1ccccc1)C(=O)Nc1ccc(Nc2ccc(NC(=O)C(CCCCNC(=O)OCc3ccccc3)NC(=O)OCc3ccccc3)cc2)cc1)OCc1ccccc1 (centres undefined) ?
Output line: class 1

Input line: Recorded call for CCCCCCCCCCCCCCCCCC(=O)OCCN1C(=O)c2ccccc2C1=O ?
Output line: class 0

Input line: Recorded call for Cc1cc(S(=O)(=O)c2ccc(Cl)cc2)nc(S(=O)(=O)c2ccc(Cl)cc2)c1C#N ?
Output line: class 1

----------
Consider the following molecules; for each one, report its growth inhibition.
# protocol description: NCI Yeast Anticancer Drug Screen. Data for the cln2 rad14 strain (AID 165);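 note: 0% = growth equal to vehicle treated cultures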
# particulars: S. cerevisiae cln2 rad14 strain, at 50.0 µM, hits give high values
# Experimental: Growth inhibition of yeast strains with defined genetic alterations is measured as a screen for potential anti-cancer activity. Selected strains with alterations in DNA damage repair or cell cycle control were exposed to compounds and growth inhibition was measured relative to vehicle treated controls. The strain used in this assay is cln2 rad14
About 79,000 compounds went through this panel and 15% of them were active in at least one assay; those are over-represented in the sample as a whole.
Numbers only, in %.

// solved cases for growth inhibition follow
COc1ccc(NC(=O)CCC(=O)C(C)C(=O)c2ccccc2)cc1 (stereo not drawn)    49.2
COc1ccc2c(c1)N=C(N)n1c(nc3ccccc31)S2    36.1
CCCCCCCCCCN    42.2

State recorded growth inhibition for all listed molecules.
1. CC(C)C1=C(O)c2ccccc2C(=O)C1=O
2. CCN(CC)c1c(C(=O)/C=C/c2ccc(F)cc2)c(-c2ccccc2)nn(C)c1=O
3. O=c1[nH]c2ccccc2c(O)c1/C=N/C(=S)NCCc1ccccc1
4. CCCCCCCCN(CCCCCCCC)CC(O)c1cc2c(c3ccccc13)CCCC2 (stereo not drawn)

Output line:
62.6
90.3
9.6
99.2

----------
# protocol description: NCI Yeast Anticancer Drug Screen. Data for the sgs1 mgt1 strain (AID 161);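 note: 0% = growth of cultures given vehicle only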
# particulars: S. cerevisiae sgs1 mgt1 strain, at 5.0 µM (retest, dose inferred, filed as 0.5), hits give high values
This is part of a sample that, as a whole, favours compounds with a hit. Of some 79,000 tested, about 15% had one in any assay.
measure name: growth inhibition (%)
Give bare numbers, in %.

// solved cases for growth inhibition follow
CCCCCc1cccc(CC(=O)OCC)n1    -66
NC1CCCCC1N.O=C([O-])c1ccc(N=Nc2cccc([N+](=O)[O-])c2)cc1O.O=C([O-])c1ccc(N=Nc2cccc([N+](=O)[O-])c2)cc1O.[Pt+4]    -20
CCCCCCCCCCCC(=O)C(=O)c1ccc(O)cc1O    91
CC(N1CCOCC1)C(O)(c1ccccc1)c1ccccn1 (stereo not drawn)    -4
O=C(Nc1cc(Cl)c(Cl)cc1Cl)C(=O)C(C(=O)c1ccc2ccccc2c1)C1OC(=O)c2ccccc21 (stereo not drawn)    15
COc1ccc(C2c3cc4c(cc3OC(NCCO)C2C)OCO4)cc1 (stereo not drawn)    -50

State recorded growth inhibition for all listed compounds.
1. CCOC(=O)C1=C(Nc2ccc(Br)cc2)OC/C1=N\NC(=O)c1ccccc1O
2. COc1ccc(/C=N/n2c(C)nc3c(sc(=S)n3-c3ccccc3)c2=O)cc1

Output line:
[7, 3]
